# target: LIN28–let-7 interaction (Homo sapiens)
# Construct: Purified LIN28A (residues 16–187) was incubated at a concentration of 200 nM; His-tag (cleaved yes); made in house; host or cells: Escherichia coli BL21(DE3)
# Sequence (Q9H9Z2 16-187): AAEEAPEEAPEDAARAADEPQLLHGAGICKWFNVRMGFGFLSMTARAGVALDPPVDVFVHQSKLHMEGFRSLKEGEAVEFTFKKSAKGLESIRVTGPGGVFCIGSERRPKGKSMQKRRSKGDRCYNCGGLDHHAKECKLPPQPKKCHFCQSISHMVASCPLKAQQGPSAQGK
# assay_procedure: Fluorescence polarization (FP) assay, LIN28A (residues 16–187) and FAM-labeled preE-let-7f-1
# Assay type: binding
# run_parameters: raw data Table S3; 0.368 μM compound; four replicates
measured_attribute: FP, Average (mP)

compound	FP, Average (mP)
O=C(C1=C(O)C(=O)N(c2ccc(O)c(C(=O)O)c2)C1c1ccc(-c2nccs2)cc1)c1ccco1 (stereo not shown)	109.75
O=C(O)c1ccc(C2C(C(=O)c3ccccc3)=C(O)C(=O)N2c2ccc(C(=O)O)c(O)c2)cc1 (stereo not shown)	117.75
O=C(C1=C(O)C(=O)N(c2ccc(C(=O)O)c(O)c2)C1c1ccc(-c2nccs2)cc1)c1ccc(Br)cc1 (stereo not shown)	115.75
O=C(O)c1ccc(C2C(C(=O)c3ccccc3)=C(O)C(=O)N2c2ccc(O)cc2)cc1 (stereo not shown)	113.50
O=C(O)c1ccc(C2C(C(=O)c3ccccc3)=C(O)C(=O)N2c2ccc(O)c(C(=O)O)c2)cc1 (stereo not shown)	115.75
O=C(C1=C(O)C(=O)N(c2ccc(O)c([N+](=O)[O-])c2)C1c1ccc(-c2nccs2)cc1)c1ccccc1 (stereo not shown)	115.75
COc1ccc(C(=O)C2=C(O)C(=O)N(c3ccc(O)c(C(=O)O)c3)C2c2ccc(-c3nccs3)cc2)cc1OC (stereo not shown)	115.00

====

# target: LIN28–let-7 interaction (Homo sapiens)
# Construct: Purified LIN28A (residues 16–187) was incubated at a concentration of 200 nM; His-tag (cleaved yes); made in house; host or cells: Escherichia coli BL21(DE3)
# Sequence (Q9H9Z2 16-187): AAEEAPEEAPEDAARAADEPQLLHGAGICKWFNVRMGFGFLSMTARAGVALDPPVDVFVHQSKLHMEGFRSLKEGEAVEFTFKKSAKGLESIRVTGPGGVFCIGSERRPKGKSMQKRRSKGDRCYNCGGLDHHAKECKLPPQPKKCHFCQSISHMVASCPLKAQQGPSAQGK
# assay_procedure: Fluorescence polarization (FP) assay, LIN28A (residues 16–187) and FAM-labeled preE-let-7f-1
# Assay type: binding
# run_parameters: raw data Table S3; 0.041 μM compound; four replicates
measured_attribute: FP, Average (mP)

molecule	unit	observed_value
O=C(O)c1ccc(C2C(C(=O)c3ccccc3)=C(O)C(=O)N2c2ccc(O)cc2)cc1 (stereo not drawn)	mP	115.00
O=C(C1=C(O)C(=O)N(c2ccc(O)c(C(=O)O)c2)C1c1ccc(-c2nccs2)cc1)c1ccc(Br)cc1 (stereo not drawn)	mP	109.25
COc1ccc(C(=O)C2=C(O)C(=O)N(c3ccc(O)c(C(=O)O)c3)C2c2ccc(-c3nccs3)cc2)cc1OC (stereo not drawn)	mP	96.70

Taken from paper PMC8201479.
